Reference source for all entries: the supplement of paper PMC12042874

# EXPERIMENT NOTES: amyloid nucleation score (Sup35N fusion, yeast selection) (log enrichment); library NNK3; higher = more nucleation; inactive = no reads after selection;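 note: zero at mode of non-aggregating sequences after 7 days selection at 30°C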
PROPERTY MEASURED: amyloid nucleation score

# SUBSTANCE, PROPERTY MEASURED, OBS VALUE
measured = [
    ("NVNMYIDFVLIDMNWQNCTQ", "amyloid nucleation score", 3.05),
    ("IWQCRYLRMGQ", "amyloid nucleation score", "inactive"),
    ("SGWYWICLKHRGQVDHPLST", "amyloid nucleation score", "inactive"),
    ("GKRNEWN", "amyloid nucleation score", "inactive"),
    ("SIMIVLCGKLTLNFSLRNVV", "amyloid nucleation score", "inactive"),
    ("RVIIRNANSILGTPQSDHNQ", "amyloid nucleation score", 0.706),
    ("ISVIYLS", "amyloid nucleation score", "inactive"),
    ("QYTCDDSCILFCCASWAEWS", "amyloid nucleation score", 2.34),
    ("ASDCWLFIGNAGSFTGKRSC", "amyloid nucleation score", "inactive"),
    ("MSLLGQ", "amyloid nucleation score", "inactive"),
    ("NFFAACNMMVLPFSMDFCSR", "amyloid nucleation score", 2.77),
    ("CHFIRGESSRTKLGLEHTN", "amyloid nucleation score", "inactive"),
    ("GFYVCPMGCNEYRVLICSDS", "amyloid nucleation score", "inactive"),
    ("YGVWCSYKFVYSCDPYDSAG", "amyloid nucleation score", 0.557),
    ("VFGFMCNYSFVATSRLCVIG", "amyloid nucleation score", "inactive"),
    ("VTRMLFVHCGTSVNVNS", "amyloid nucleation score", "inactive"),
    ("GCTFRNWIWWLHRFDKMR", "amyloid nucleation score", 0.861),
    ("DYVAGN", "amyloid nucleation score", "inactive"),
    ("VGHPFNCSLDCF", "amyloid nucleation score", "inactive"),
    ("ICLYLRQVKLIAGAERKKVQ", "amyloid nucleation score", "inactive"),
    ("FSNSSGNGEGDLRENLQNKM", "amyloid nucleation score", "inactive"),
    ("IDRLLLNTKYIVQGLPNWTK", "amyloid nucleation score", "inactive"),
    ("KEGDFPLSSSRYSYTNYLVI", "amyloid nucleation score", "inactive"),
    ("SEGSNNVSCSI", "amyloid nucleation score", "inactive"),
    ("ASQAALFGKIHYEASY", "amyloid nucleation score", "inactive"),
    ("SLQKWWDSLTHNLMVVTKHG", "amyloid nucleation score", "inactive"),
    ("SYTFVCRPTFYVCFCGSMCF", "amyloid nucleation score", 2.45),
    ("NFRLSVLKVLCYVIVED", "amyloid nucleation score", 2.14),
    ("LYIPMQLQCCAIMEGYAILF", "amyloid nucleation score", 1.6),
    ("HEIQGC", "amyloid nucleation score", "inactive"),
    ("IPYSTHRINSILISLSWFCV", "amyloid nucleation score", 0.691),
    ("SMNFSSWWRLCCDEGSGSYT", "amyloid nucleation score", 0.671),
    ("KRCWLWWIKVCTKMLLEVSS", "amyloid nucleation score", "inactive"),
    ("AYFLLCHHFTKRSWARGWR", "amyloid nucleation score", 0.314),
    ("QSCCKQQILYHRGQTRHQ", "amyloid nucleation score", "inactive"),
    ("TGGWTNNEQHFENSGMEVGT", "amyloid nucleation score", "inactive"),
    ("FSVHRGLLFITQGSDVAEHV", "amyloid nucleation score", "inactive"),
    ("EISSVAAYGSN", "amyloid nucleation score", "inactive"),
    ("YELMIFVTELALLDEILPEQ", "amyloid nucleation score", "inactive"),
    ("YSLGITGPHEAHQIVNLPWW", "amyloid nucleation score", "inactive"),
    ("GGMGSLCSTREGMDWCPRGY", "amyloid nucleation score", "inactive"),
    ("NAYTAHGYDKLRNQSKVAYR", "amyloid nucleation score", "inactive"),
    ("LKRSFNDFEFH", "amyloid nucleation score", "inactive"),
    ("NAGYSNRCQIGYICSVRACK", "amyloid nucleation score", "inactive"),
    ("SYFVLVWRETDFKHCLKGNF", "amyloid nucleation score", "inactive"),
    ("LRKPYLEY", "amyloid nucleation score", "inactive"),
    ("NLLWIISHNMNGVSRIISSV", "amyloid nucleation score", "inactive"),
    ("RSLYMLVNLMYCGTEVRFIC", "amyloid nucleation score", "inactive"),
    ("KFLISFRRSY", "amyloid nucleation score", 2.07),
    ("ENSGWSKRVFSSFFMIAMMY", "amyloid nucleation score", "inactive"),
    ("VRKKCLDPDGFLSRLGPAFD", "amyloid nucleation score", -0.429),
    ("QSSIHTFCLTLLLSKTYSYQ", "amyloid nucleation score", "inactive"),
    ("SSHVQRMMRLMVAN", "amyloid nucleation score", "inactive"),
    ("YSFLGRNSIISCIR", "amyloid nucleation score", "inactive"),
    ("RISYKVRHTSNLVKTWCYTW", "amyloid nucleation score", "inactive"),
    ("LGTWFWVVVG", "amyloid nucleation score", "inactive"),
    ("TFGWINVAYSYSFSICGCTG", "amyloid nucleation score", 2.62),
    ("GPPCDFCIRVSVCYTGSVNW", "amyloid nucleation score", 0.466),
    ("RQTCFIMVSCYPVKNGNSEI", "amyloid nucleation score", 1.48),
    ("IPRWKFN", "amyloid nucleation score", -0.57),
    ("SGPRDSRLCRDSSVSGVYLS", "amyloid nucleation score", "inactive"),
    ("RSRLAGFSNYFCMKCVIAAG", "amyloid nucleation score", "inactive"),
    ("VWWSYLQKSKILI", "amyloid nucleation score", 0.624),
    ("GTLTVYNRDFRDIGDFKIYA", "amyloid nucleation score", "inactive"),
    ("KSCLCLSPRGFGTDSAAVKW", "amyloid nucleation score", 0.966),
]
